Biological target: T1, DLK1-Fc fusion protein (Homo sapiens (Human), UniProt P80370 25-302)
T1 construct: Water-soluble DLK1 joined to a human antibody Fc region; also called DLK1-Fc-FITC; not shown: human antibody Fc region
T1 sequence: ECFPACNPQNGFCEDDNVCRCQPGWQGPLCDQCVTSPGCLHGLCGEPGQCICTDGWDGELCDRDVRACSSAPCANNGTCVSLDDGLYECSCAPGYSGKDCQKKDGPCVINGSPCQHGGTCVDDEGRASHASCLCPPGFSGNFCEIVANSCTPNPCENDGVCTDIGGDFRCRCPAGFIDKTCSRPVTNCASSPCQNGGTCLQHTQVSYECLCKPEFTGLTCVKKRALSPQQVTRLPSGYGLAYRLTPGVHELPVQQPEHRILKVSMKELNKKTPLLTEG
Assay: scFv-phage ELISA; OD on DLK1 divided by OD on a-myc
binders and their reported Ratio
metric: Ratio

binder	observed value
DLK1A04 (scFv, V domains shown, Monoclonal scFv on phage; VH1-3, L8) VH: QVQLVESGAEVKKPGASVKVSCKASGYTFKDYAIHWVRQAPGQRLEWMGWINPGSGNTKYSHNFEGRVILTRDASANTAYLELPSLRSEDTAVYYCARSVSAYGSNYFDPWGQGTLITVSS VL: DIQMTQSPSSLSASVGDRVTITCQASQDISNYLNWYQQKPGKAPKLLIYSTSNLQSGVPSRFSGSGSGTDFTLTISSLQPEDFATYYCQQLNSYPLTFGGGTKVDIK	6.15
DLK1A10 (scFv, V domains shown, Monoclonal scFv on phage; VH3-9) VH: QVQLVESGGGLVQPGRSLRLSCAASGFTFDDYAMHWVRQAPGKGLEWVSGISWNSGSIGYADSVKGRFTISRDNAKNSLYLQMNSLRAEDTAVYYCARGPGLATGKGYADYWGQGTLVTVSS VL: DIQMTQSPSSVSASVGDRVTITCRASQRISSWLAWYQQKPGRAPKLLIHSASTLHNGVPSRFSGSASGTDFTLTISSLQPEDYAIYYCQQGHSFPYTFGQGTKLEIK	2.21
DLK1B09 (scFv, V domains shown, Monoclonal scFv on phage; VH3-23, V1-4; also called B09 (phage clone)) VH: QMQLVESGGRLVRPGGSLRLSCAASGFPFTSYAMNWVRQTPGKGLEWVSTITATSGKTYYADSVKGRFTISRDNSRNTLFLQMNSLRAEDTAVYYCVRGESCSGGACSDFDYWGQGALVTVSS VL: QLVLTQPASVSGSPGQSVTISCTGTSSDIGRYNRVSWYQHHPGKAPKLILNDVTTRPSGFSNRFSGSKSGNTASLTISGLQAEDEADYSCGSYAGSYTYVFGTGTKVTVL	25.3

Values were extracted from patent US20140072558A1.
